- Target Or System: T1, NLpoly11S
- T1 chain: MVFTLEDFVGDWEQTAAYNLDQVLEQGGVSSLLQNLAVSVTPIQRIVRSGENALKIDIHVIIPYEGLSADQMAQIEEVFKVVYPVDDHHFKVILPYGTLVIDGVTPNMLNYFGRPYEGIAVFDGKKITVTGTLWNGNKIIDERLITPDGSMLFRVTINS
- Protocol Text: luminescence complementation titration, one-site specific binding fit
Attribute Measured: Kd (nM)
Report the value in nM with no unit label.

Binder	Attribute Measured	Reported Result
VTGYRLFQEEL (modifications not checked) [array2.45]	Kd	35400
VTGYRLFKKES (modifications not checked) [array2.3]	Kd	773

Please examine the following record next.
Item under review: VTGYRLFEKIS (modifications not checked) [array2.19] . Reported Kd?
605

Reference for the values: patent US20200292534A1
